Data origin: patent US20260317299A1

- system tested: PIKfyve (Homo sapiens, UniProt Q9Y2I7)
- Construct: endogenous in cells; host or cells: VCaP
- Sequence (Q9Y2I7 whole entry): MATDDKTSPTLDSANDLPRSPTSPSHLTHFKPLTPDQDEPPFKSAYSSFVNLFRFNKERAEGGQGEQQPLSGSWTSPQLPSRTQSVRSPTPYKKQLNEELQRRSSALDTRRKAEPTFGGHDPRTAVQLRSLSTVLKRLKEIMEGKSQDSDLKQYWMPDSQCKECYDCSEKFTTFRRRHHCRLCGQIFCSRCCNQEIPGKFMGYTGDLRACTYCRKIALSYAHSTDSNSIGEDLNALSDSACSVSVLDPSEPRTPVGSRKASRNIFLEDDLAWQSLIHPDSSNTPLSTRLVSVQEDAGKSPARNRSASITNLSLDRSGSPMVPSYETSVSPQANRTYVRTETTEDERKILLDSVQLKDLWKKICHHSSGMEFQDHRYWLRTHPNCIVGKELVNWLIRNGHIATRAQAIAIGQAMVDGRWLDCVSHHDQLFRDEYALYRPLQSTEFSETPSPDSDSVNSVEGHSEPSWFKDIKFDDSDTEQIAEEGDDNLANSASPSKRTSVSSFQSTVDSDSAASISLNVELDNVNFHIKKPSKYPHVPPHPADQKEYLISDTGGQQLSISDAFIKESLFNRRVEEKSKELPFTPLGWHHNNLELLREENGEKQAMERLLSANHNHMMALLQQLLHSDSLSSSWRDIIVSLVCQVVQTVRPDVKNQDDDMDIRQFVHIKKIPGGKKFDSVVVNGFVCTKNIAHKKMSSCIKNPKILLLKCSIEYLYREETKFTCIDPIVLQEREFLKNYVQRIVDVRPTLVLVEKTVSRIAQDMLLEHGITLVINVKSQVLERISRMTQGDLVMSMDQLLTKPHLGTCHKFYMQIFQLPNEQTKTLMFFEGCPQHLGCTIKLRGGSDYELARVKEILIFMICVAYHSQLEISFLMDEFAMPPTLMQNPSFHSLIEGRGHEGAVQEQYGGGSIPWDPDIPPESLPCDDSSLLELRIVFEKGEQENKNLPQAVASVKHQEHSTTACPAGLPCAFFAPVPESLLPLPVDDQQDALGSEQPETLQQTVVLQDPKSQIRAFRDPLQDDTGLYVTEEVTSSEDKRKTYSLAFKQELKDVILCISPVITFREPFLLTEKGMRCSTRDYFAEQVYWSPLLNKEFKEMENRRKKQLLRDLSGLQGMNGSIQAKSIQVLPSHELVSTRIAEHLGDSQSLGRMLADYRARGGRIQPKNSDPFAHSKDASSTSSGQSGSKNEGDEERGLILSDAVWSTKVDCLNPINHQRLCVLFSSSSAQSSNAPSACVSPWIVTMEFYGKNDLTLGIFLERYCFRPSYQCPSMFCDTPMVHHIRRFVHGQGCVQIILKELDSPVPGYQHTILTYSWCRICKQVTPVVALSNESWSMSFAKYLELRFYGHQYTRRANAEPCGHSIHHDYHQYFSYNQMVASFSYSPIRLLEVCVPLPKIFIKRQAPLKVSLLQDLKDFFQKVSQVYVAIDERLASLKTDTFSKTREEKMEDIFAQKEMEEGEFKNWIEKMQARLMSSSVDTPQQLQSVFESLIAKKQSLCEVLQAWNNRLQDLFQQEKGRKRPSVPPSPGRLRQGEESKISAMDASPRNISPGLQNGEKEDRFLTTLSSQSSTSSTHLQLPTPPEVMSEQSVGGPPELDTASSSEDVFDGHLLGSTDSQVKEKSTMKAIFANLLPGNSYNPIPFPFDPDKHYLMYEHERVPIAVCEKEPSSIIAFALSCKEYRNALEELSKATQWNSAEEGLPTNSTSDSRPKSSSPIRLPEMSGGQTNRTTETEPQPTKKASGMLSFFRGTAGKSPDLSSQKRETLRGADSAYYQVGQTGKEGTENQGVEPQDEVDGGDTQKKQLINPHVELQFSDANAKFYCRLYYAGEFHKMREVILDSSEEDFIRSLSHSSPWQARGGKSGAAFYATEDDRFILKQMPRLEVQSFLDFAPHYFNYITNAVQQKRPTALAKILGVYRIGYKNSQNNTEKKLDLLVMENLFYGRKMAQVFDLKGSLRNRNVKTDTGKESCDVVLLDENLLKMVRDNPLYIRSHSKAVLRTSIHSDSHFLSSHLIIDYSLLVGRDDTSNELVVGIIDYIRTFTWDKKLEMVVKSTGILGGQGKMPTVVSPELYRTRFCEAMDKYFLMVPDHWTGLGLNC
- measurement protocol: Degradation of PIKfyve proteins in VCaP tumor cells (24 h, Western blot)
- Assay type: cell-based
- assay setup: 37° C., compared with DMSO control, WB, read-out: DC50 (concentration that achieves 50% degradation activity)
assay readout: DC50

input: Item under review: Cc1cccc(/C=N/Nc2cc(N3CCOCC3)nc(OCCc3ccc(NC(=O)CCCCCCC(=O)N[C@H](C(=O)N4C[C@H](O)C[C@H]4C(=O)NCc4ccc(-c5scnc5C)cc4)C(C)(C)C)cc3)n2)c1 . Reported DC50?
output: 1 to 100 nM

input: What measured DC50 goes with Cc1cccc(-c2ccn(-c3cc(N4CCOCC4)nc(OC4CCN(c5ccc(NC(=O)NC6CN(C(=O)C[C@H](NC(=O)[C@@H]7C[C@@H](O)CN7C(=O)[C@@H](NC(=O)C7(F)CC7)C(C)(C)C)c7ccc(-c8scnc8C)cc7)C6)cc5)CC4)n3)n2)c1 ?
output: 1 to 100 nM

input: Which DC50 value is on record for Cc1cccc(-c2ccn(-c3cc(N4CCOCC4)nc(OCCc4ccc(N5CCN(C(=O)C[C@H](NC(=O)[C@@H]6C[C@@H](O)CN6C(=O)[C@@H](NC(=O)C6(F)CC6)C(C)(C)C)c6ccc(-c7scnc7C)cc6)CC5)cc4)n3)n2)c1 ?
output: 1 to 100 nM

input: Given the entry Cc1cccc(/C=N/Nc2cc(N3CCOCC3)nc(OCCc3ccc(NC(=O)CCCNC(=O)CC[C@H](NC(=O)[C@@H]4C[C@@H](O)CN4C(=O)[C@@H](NC(=O)C4(F)CC4)C(C)(C)C)c4ccc(-c5scnc5C)cc4)cc3)n2)c1 , report its measured DC50.
output: 1 to 100 nM

input: // lookup DC50 for Cc1cccc(/C=N/Nc2cc(N3CCOCC3)nc(OCCNC(=O)CCC(=O)N[C@H](C(=O)N3C[C@H](O)C[C@H]3C(=O)NCc3ccc(-c4scnc4C)cc3)C(C)(C)C)n2)c1
output: 100 to 10000 nM

input: // lookup DC50 for Cc1cccc(/C=N/Nc2cc(N3CCOCC3)nc(OCCc3ccc(NC(=O)CNC(=O)CC[C@H](NC(=O)[C@@H]4C[C@@H](O)CN4C(=O)[C@@H](NC(=O)C4(F)CC4)C(C)(C)C)c4ccc(-c5scnc5C)cc4)cc3)n2)c1
output: 1 to 100 nM

input: # get_value(readout='DC50', item= Cc1cccc(-c2ccn(-c3cc(N4CCOCC4)nc(OC4CCN(c5ccc(NC(=O)CC[C@H](NC(=O)[C@@H]6C[C@@H](O)CN6C(=O)[C@@H](NC(=O)C6(F)CC6)C(C)(C)C)c6ccc(-c7scnc7C)cc6)cc5)CC4)n3)n2)c1 )
output: 1 to 100 nM

input: Which DC50 reading was recorded for the compound Cc1cccc(-c2ccn(-c3cc(N4CCOCC4)nc(OCCc4ccc(NC(=O)NC5CCN(C(=O)CC[C@H](NC(=O)[C@@H]6C[C@@H](O)CN6C(=O)[C@@H](NC(=O)C6(F)CC6)C(C)(C)C)c6ccc(-c7scnc7C)cc6)CC5)cc4)n3)n2)c1 ?
output: 1 to 100 nM

input: Quick one: DC50 for Cc1cccc(-c2ccn(-c3cc(N4CCOCC4)nc(OCCc4ccc(C#CC5CCN(C(=O)C[C@H](NC(=O)[C@@H]6C[C@@H](O)CN6C(=O)[C@@H](NC(=O)C6(F)CC6)C(C)(C)C)c6ccc(-c7scnc7C)cc6)CC5)cc4)n3)n2)c1 ?
output: 1 to 100 nM

input: Consider the compound Cc1cccc(/C=N/Nc2cc(N3CCOCC3)nc(OCCc3ccc(NC(=O)CCCCCC(=O)N[C@H](C(=O)N4C[C@H](O)C[C@H]4C(=O)N[C@@H](C)c4ccc(-c5scnc5C)cc4)C(C)(C)C)cc3)n2)c1 and give its measured DC50.
output: 1 to 100 nM

input: Item under review: Cc1cccc(/C=N/Nc2cc(N3CCOCC3)nc(OCCc3ccc(NC(=O)CCCCCCCCCCC(=O)Nc4cccc5c4C(=O)N(C4CCC(=O)NC4=O)C5)cc3)n2)c1 (centres unmarked) . Reported DC50?
output: 100 to 10000 nM
